measured-attribute: melting point

> print(dat)
                         chemical.structure         result
1  O=C(NCc1ccc(Cl)cc1)c1cn2c(CSc3ccccc3)cc3cc(CN4CCOCC4)cc(c1=O)c32  173 to 175 °C
2  O=C(NCc1ccc(Cl)cc1)c1cn2c(CO)cc3cc(CN4CCOCC4)cc(c1=O)c32  210 to 212 °C
3  O=C(NCc1ccc(Cl)cc1)c1cn2c(CCCO)cc3cc(CN4CCOCC4)cc(c1=O)c32  171 to 174 °C
4  O=C(NCc1ccc(Cl)cc1)c1cn2c(CO)cc3cccc(c1=O)c32  211 to 213 °C
5  NC(=O)NCc1cc2cc(CN3CCOCC3)cc3c(=O)c(C(=O)NCc4ccc(Cl)cc4)cn1c23  250 to 252 °C
6  O=C(NCc1ccc(Cl)cc1)c1cn2c(CN3CCS(=O)(=O)CC3)cc3cc(CN4CCOCC4)cc(c1=O)c32  236 to 239 °C
7  C[C@@H](O)c1cc2cc(CN3CCOCC3)cc3c(=O)c(C(=O)NCc4ccc(Cl)cc4)cn1c23  155 to 159 °C
8  O=C(NCc1ccc(Cl)cc1)c1cn2c(CCO)cc3cccc(c1=O)c32  190 to 192 °C

Identify measured melting point associated with O=C(NCc1ccc(Cl)cc1)c1cn2c(CCO)cc3cc(CC4CCOCC4)cc(c1=O)c32
204 to 206 °C

Identify measured melting point associated with COCc1cc2cc(CN3CCOCC3)cc3c(=O)c(C(=O)NCc4ccc(Cl)cc4)cn1c23
157 to 159 °C

Identify measured melting point associated with O=C(NCc1ccc(Cl)cc1)c1cn2c(CO)cc3cc(CC4CCOCC4)cc(c1=O)c32
196 to 198 °C

Identify measured melting point associated with O=C(NCc1ccc(Cl)cc1)c1cn2c(CN3CCS(=O)(=O)CC3)c(I)c3cc(CN4CCOCC4)cc(c1=O)c32
244 to 246 °C

Identify measured melting point associated with CCSCc1cc2cc(CN3CCOCC3)cc3c(=O)c(C(=O)NCc4ccc(Cl)cc4)cn1c23
177 to 178 °C

* * *

Molecular target: CMV Polymerase (Human cytomegalovirus, UniProt P08546)
Sequence (P08546 whole entry): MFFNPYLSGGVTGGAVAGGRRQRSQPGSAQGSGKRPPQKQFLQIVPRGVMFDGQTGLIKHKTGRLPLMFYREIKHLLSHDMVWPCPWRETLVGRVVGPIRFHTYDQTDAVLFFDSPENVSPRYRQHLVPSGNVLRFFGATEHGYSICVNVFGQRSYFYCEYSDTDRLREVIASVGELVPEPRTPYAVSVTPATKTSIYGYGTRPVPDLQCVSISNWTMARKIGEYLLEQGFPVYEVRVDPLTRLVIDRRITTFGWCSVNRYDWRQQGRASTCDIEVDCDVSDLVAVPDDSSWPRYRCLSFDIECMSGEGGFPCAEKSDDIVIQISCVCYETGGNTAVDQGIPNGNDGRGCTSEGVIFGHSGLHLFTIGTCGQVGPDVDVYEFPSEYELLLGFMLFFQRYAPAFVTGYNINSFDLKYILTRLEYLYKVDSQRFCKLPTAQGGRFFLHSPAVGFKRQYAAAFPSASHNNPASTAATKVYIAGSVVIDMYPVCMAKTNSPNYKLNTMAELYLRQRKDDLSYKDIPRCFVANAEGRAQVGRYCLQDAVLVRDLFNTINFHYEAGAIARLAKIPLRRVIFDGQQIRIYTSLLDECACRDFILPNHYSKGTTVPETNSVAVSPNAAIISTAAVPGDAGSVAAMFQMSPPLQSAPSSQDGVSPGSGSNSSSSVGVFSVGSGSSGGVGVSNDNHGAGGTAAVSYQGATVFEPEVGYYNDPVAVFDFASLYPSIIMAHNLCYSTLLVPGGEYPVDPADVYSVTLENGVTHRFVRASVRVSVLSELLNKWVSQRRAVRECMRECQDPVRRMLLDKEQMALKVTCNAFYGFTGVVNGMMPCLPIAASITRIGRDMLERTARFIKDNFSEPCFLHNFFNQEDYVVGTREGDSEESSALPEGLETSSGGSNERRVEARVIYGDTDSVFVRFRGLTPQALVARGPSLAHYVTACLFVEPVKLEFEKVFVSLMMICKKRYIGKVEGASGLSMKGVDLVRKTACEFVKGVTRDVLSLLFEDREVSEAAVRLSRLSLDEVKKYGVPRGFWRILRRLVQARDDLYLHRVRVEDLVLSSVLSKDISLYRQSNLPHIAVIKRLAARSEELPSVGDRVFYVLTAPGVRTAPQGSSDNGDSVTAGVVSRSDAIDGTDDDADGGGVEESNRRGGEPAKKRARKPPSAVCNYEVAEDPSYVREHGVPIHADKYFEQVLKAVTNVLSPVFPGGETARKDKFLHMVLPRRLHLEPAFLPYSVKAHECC
Experiment: HCMV polymerase scintillation proximity assay (modified version)
Details: modified SPA assay; compounds diluted in 100% DMSO; 4.5 mM DTT
Description: The HCMV polymerase assay is performed using a scintillation proximity assay (SPA) as described in several references, such as N. D. Cook, et al., Pharmaceutical Manufacturing International, pages 49-53 (1992); K. Takeuchi, Laboratory Practice, September issue (1992); U.S. Pat. No. 4,568,649 (1986); which are incorporated by reference herein. Reactions are performed in 96-well plates. […] Plates are incubated 10 min. at 37° C., then equilibrated to room temperature, and counted on a Packard Topcount. […]
measured-attribute: IC50 (nM)

> print(dat)
                         chemical.structure                             tested.target  unit.descriptor  numeric.value
1  NC(=O)NCc1cc2cc(CN3CCOCC3)cc3c(=O)c(C(=O)NCc4ccc(Cl)cc4)cn1c23  CMV Polymerase (Human cytomegalovirus, UniProt P08546)               nM            410

a = O=C(NCc1ccc(Cl)cc1)c1cn2c(CCCO)cc3cc(CN4CCOCC4)cc(c1=O)c32
b = CCSCc1cc2cc(CN3CCOCC3)cc3c(=O)c(C(=O)NCc4ccc(Cl)cc4)cn1c23
c = CN1CCN(CCCc2cc3cc(CN4CCOCC4)cc4c(=O)c(C(=O)NCc5ccc(Cl)cc5)cn2c34)CC1
d = O=C(NCc1ccc(Cl)cc1)c1cn2c(CO)cc3cccc(c1=O)c32
Which order do these items take when sorted by rising IC50? List them. Write the labels in rank order as requested.
a, b, d, c
(a: 320 nM, b: 580 nM, d: 1200 nM, c: 3440 nM)
